# tested.system: UniProt Q07343
# Sequence (Q07343 whole entry): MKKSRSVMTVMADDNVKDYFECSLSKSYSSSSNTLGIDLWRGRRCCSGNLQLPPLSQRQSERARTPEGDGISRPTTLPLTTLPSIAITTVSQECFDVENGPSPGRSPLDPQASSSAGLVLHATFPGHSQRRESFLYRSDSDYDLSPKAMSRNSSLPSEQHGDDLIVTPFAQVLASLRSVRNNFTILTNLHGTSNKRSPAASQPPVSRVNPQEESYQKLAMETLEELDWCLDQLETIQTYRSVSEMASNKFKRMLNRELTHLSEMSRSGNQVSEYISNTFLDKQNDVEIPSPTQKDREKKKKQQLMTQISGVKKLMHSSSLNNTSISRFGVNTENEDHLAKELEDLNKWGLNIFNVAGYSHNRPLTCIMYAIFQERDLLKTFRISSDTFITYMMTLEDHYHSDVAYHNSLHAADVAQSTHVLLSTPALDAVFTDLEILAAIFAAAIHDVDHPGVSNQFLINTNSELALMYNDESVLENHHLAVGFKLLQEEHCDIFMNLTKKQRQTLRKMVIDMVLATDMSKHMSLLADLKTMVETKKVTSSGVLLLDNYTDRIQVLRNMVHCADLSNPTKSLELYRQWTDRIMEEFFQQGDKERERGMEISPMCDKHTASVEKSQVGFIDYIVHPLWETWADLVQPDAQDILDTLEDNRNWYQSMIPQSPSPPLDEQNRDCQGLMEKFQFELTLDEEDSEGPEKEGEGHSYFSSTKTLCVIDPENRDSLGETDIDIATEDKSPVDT
# procedure.details: Inhibition of PDE4B expressed in Sf9 cells using cAMP as substrate at 30 uM preincubated for 15 mins prior substrate addition measured after 1 hr by luminescence-based spectrophotometry
Reported inhibition values for a set of compounds
# number only, unit % dropped from output

Examples from the recorded data:
[[record]]
compound_smiles = "CCOC(=O)c1n[nH]c(-c2cccc(Cl)c2)c1C#CCCCC#N"
property = "inhibition"
val = 71.1

[[record]]
compound_smiles = "CCOC(=O)c1n[nH]c(-c2cccc(Cl)c2)c1C#CCCO"
property = "inhibition"
val = 65.1

[[record]]
compound_smiles = "CCOC(=O)c1n[nH]c(-c2cccc(Cl)c2)c1C#CCO"
property = "inhibition"
val = 68.1

[[record]]
compound_smiles = "CCOC(=O)c1nn(C)c(-c2cccc(Cl)c2)c1C#CCO"
property = "inhibition"
val = 69.1

[[record]]
compound_smiles = "CCOC(=O)c1nn(C)c(-c2cccc(Cl)c2)c1C#CC(C)(C)O"
property = "inhibition"
val = 67.3


Hello, I am looking for reported inhibition with UniProt Q07343 for CCOC(=O)c1n[nH]c(-c2cccc(Cl)c2)c1C#Cc1ccccc1 . Could you help?
70

Form field: inhibition recorded for CCOC(=O)c1n[nH]c(-c2cccc(Cl)c2)c1C#CC(C)(C)O with UniProt Q07343 (enter value)
70

Lab note: need inhibition with UniProt Q07343 for entry CCOC(=O)c1n[nH]c(-c2cccc(Cl)c2)c1C#CC1(O)CCCCC1 , please look it up.
21.1

Which measured inhibition belongs to CCOC(=O)c1nn(C)c(-c2cccc(Cl)c2)c1C#CCCCC#N , tested on UniProt Q07343?
73.4

Return inhibition measured with UniProt Q07343 given this compound: CCOC(=O)c1nn(C)c(-c2cccc(Cl)c2)c1C#CCCO
59.2
